measured target: ETS1 (UniProt P14921)
Sequence: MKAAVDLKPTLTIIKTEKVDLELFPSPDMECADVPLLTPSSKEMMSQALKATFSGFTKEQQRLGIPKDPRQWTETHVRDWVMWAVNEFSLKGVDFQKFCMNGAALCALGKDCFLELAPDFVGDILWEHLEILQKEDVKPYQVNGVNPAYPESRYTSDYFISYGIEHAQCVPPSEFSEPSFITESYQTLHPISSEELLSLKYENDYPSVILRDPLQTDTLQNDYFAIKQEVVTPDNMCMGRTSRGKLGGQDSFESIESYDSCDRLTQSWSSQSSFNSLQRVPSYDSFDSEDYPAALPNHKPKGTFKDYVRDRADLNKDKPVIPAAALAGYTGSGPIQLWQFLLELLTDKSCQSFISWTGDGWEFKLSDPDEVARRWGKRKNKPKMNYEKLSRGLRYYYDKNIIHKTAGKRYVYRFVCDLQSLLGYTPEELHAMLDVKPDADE
protocol: ETS1 binding intensity (PBM fluorescence), ETS1 alone (arbitrary fluorescence units); higher = stronger binding
condition: ETS1 concentration 1 nM; RUNX1 concentration 0 nM
reported metric: ETS1 binding intensity
# output: bare number, no unit

Fill in ETS1 binding intensity for record GGTGTGTTCTGGGGAGGAAGTGGGTTTTCAGGTTGT
3820

Provide only the value of recorded ETS1 binding intensity for AGCACAGGTTCCCAGGAAATGTGGGTTGAACAAGGC
1250

Determine its reported ETS1 binding intensity: CCTGCCTTCCGTCTTCCAGGCAGAACCACAGAGAGG
432

Supply recorded ETS1 binding intensity for AATGTAGGAAATTCCACTGCATAATTTGTGGTAGTG here.
478

Tell us which ETS1 binding intensity value is on record for AGAACAGGATGTTCTGAGTACAGCATGAACCTCAAA
1280

Please report ETS1 binding intensity for the following sequence: GGGGCGCTGCGCAGGAAGCCGCAGTCCCTCTGCGGA
930

Give the reported value of ETS1 binding intensity for this record: ACCAGGATGTAGTTTAGCTTAGGGGTGGTTATATCG
603

Identify measured ETS1 binding intensity associated with GAGTCTACAGCGGAAGCCACCACATGCCCCACCCCC
4820

Please report the measured ETS1 binding intensity for GAGGACTTCCGGGTGCGTGTGATATCTGCGGGCCCG
802

Look up and state reported ETS1 binding intensity for TGTATGAAAAAAACAGGAAACCACAGAGAACTGAGG
2210

Return reported ETS1 binding intensity. Input sequence: GCCGTGGGTACGACCGGAAGCCGCAGGTGGGTGAAG
18000

Annotate the sequence CCTAGAACCGGAAGAGAAAGGGGCTGCGGTGCAGCA with its measured ETS1 binding intensity.
1680

Read off the recorded ETS1 binding intensity for AGCGCCGGAAGTGTGTCTGCGTAAAACTGCGGCTCG
3490

Answer with reported ETS1 binding intensity of CAGGGTGTCGGCTTCCGGCGGTTGCCCACTTTCGGC
1100

Answer with reported ETS1 binding intensity of CCCCGGGAAGGGAAGTTTGTGGCGGAGGAGGTTCGT
592

Supply recorded ETS1 binding intensity for ACGTTTCGGGGTTTCCGGGCCAGCGGTTTCGGGCGC here.
702

Return the recorded ETS1 binding intensity value; entry: TCACATCCTGTAATGGTTTGCGCATACCACAGTTCT
455

Tell us which ETS1 binding intensity value is on record for CCAGACCCGGCGGAACTACCGTGCCCACAAGGCAGC
396

Give the reported value of ETS1 binding intensity for this record: AACAGGCAAAGGACAGGATGTGGTGAGCGTCGGCCC
4150

Look up and report measured ETS1 binding intensity for this entry: GCAGCATTTCCTGACTTCTTCGCCCCTGTGGTTGCA
440

Complete the entry with ETS1 binding intensity for TGGGGTGGGGTGGGAAGTGCCAGCGGTCTGGGTGTC
537

Respond only with ETS1 binding intensity recorded for GAACCTGGGAGGCGGAAGTTGCGGTTAGCCGAGATC
6030

Specify measured ETS1 binding intensity for CCCGCTTCCGCGTTTTACTCGGTGCCCGCAGCGCCG .
445

Return value of ETS1 binding intensity for input CATGGGGAGGAGGAAGTGGTGGCGGCCGCAGGCCAG , no commentary.
1040

Tell me ETS1 binding intensity reported for GGCCCGGCCGGAAGAAGCCACCTCCCCCGCACGCGT
2410

# return recorded ETS1 binding intensity for entry GTTGTCTTCTTCCTGAGTAAACCGCAGTGCAGAGAA
456

State its ETS1 binding intensity: GCGCAAGGCGCTTCCTCCCCCGCAGCGCGAGCCCCA
477

Query ETS1 binding intensity for AGAGCGAGGAGGACTTCCTGCGGCAGGTCGGCGTGA
635

For the sequence AGCGGCCTGGGAGGAGGATGTGGTTACGTGGAGACC , report ETS1 binding intensity.
1120

Tell me measured ETS1 binding intensity for GAGGGCCTGGGAGGAAGTGGGTTTTGCATACAGTCC please.
1870

// Input: CTCCCCCAGCACATCCTCTGCCACCGCTGCCTTTCC . Output its ETS1 binding intensity only.
579

Provide only the value of recorded ETS1 binding intensity for GAGATACACAGCGACATCCGCCCGCAAGAGCATGGT
823

Supply ETS1 binding intensity value. Item: CTCATCAGTCATCCGGCTGGACCGCAGGAGCTCTCC
403

Dear colleague, please send me the reported ETS1 binding intensity for GAAGGAAGTGGAGACAGTAAGGGGAAACCACAAACC when you can.
1060
